Attribute: EC50
Target: GCase (Homo sapiens)
Construct: endogenous in cells
Sequence (P04062 40-536): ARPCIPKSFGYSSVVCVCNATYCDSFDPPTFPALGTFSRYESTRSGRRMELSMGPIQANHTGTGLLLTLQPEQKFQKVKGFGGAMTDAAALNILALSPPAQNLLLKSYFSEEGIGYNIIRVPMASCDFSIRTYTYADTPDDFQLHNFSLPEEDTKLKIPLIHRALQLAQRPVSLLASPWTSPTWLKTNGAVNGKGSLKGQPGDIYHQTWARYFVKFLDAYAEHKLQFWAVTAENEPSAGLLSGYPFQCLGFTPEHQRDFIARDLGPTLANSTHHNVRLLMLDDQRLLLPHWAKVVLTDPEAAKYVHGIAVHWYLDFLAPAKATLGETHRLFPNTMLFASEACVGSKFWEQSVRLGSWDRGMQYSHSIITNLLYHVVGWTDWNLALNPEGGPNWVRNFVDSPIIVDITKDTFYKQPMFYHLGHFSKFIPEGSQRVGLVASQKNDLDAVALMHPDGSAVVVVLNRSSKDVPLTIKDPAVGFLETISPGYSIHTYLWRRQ
Assay: activation of GCase in a live cell PFB assay in HELA cells

[[record]]
molecule = "CC(=O)N1CCC(c2cc3ncc(N4CCCC(COc5ccccc5C)C4)nc3n2C)CC1 (centres unmarked)"
result = "10 to 50 µM"

[[record]]
molecule = "FC1(COc2cccc(C(F)(F)F)n2)CCCN(c2cncc(-c3nncs3)n2)C1 (centres unmarked)"
result = "< 10 µM"

[[record]]
molecule = "FC(F)Cn1ncc2cnc(N3CCCC(COc4cccnc4C(F)(F)F)C3)nc21 (centres unmarked)"
result = "10 to 50 µM"

[[record]]
molecule = "COc1ccc(OCC2CCN(C(=O)CN3CCCN(C)CC3)CC2)cc1"
result = "> 100 µM"

[[record]]
molecule = "Cn1c(-c2ccccc2)cc2ncc(N3CCCC(COc4cccnc4C(F)(F)F)C3)nc21 (centres unmarked)"
result = "10 to 50 µM"


# lookup: EC50 of Cc1cccc(-c2ccccc2C(=O)N2CCCC(COc3ccccc3)C2)c1 (centres unmarked) 10 to 50 µM

Could you share which EC50 value was measured for Cc1ccccc1CCC(=O)N1CCCC(COc2ccccc2)C1 (centres unmarked) ? 10 to 50 µM

What value of EC50 has been recorded for this entry: COc1ccc(OCC2CCN(C(=O)c3cc(C)oc3C)CC2)cc1 10 to 50 µM

* * *

Each entry below carries its reported pEC50.
Target: GCase (Homo sapiens, UniProt P04062)
Construct: endogenous in cells
Sequence (P04062 40-536): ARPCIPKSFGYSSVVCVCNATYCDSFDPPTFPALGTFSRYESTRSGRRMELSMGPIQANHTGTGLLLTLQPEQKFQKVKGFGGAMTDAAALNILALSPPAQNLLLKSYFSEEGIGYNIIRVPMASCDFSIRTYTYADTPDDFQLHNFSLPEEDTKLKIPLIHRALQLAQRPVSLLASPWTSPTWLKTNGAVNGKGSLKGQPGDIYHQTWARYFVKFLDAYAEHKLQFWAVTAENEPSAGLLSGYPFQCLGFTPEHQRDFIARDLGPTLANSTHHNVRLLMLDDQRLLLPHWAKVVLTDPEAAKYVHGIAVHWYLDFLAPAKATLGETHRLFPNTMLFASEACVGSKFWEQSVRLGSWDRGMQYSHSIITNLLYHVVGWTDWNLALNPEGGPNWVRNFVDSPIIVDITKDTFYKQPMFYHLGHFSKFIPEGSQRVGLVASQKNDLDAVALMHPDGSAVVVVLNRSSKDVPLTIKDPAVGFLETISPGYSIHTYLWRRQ
Assay: activation of GCase in a live cell PFB assay in HELA cells
pEC50: −log10 of the molar value.

Look over these answered cases.
[[record]]
compound = "O=C(c1ccc2cc[nH]c2c1)N1CCC(Oc2cncc(C(F)(F)F)c2)CC1"
measured_endpoint = "pEC50"
result = "4.30 to 5.00"

[[record]]
compound = "COC(C(=O)N1CCCC(COc2ccccc2)C1)c1ccc(Cl)cc1 (stereo not drawn)"
measured_endpoint = "pEC50"
result = "4.30 to 5.00"

[[record]]
compound = "CC(CC1CCCN(c2cnc3cnn(CC(F)F)c3n2)C1)c1ccccc1C(F)(F)F (stereo not drawn)"
measured_endpoint = "pEC50"
result = "4.30 to 5.00"


Please find the next compound below.
Which pEC50 value belongs to COc1cnc2c(n1)c(C(=O)N1CCCC(COc3ccccc3C)C1)c(-c1ccccc1)n2C (stereo not drawn) ? 4.30 to 5.00

* * *

Each entry below carries its recorded pEC50.
biological target: GCase (Homo sapiens); construct: endogenous in cells; experiment: activation of GCase in a live cell PFB assay in HELA cells
pEC50: −log10 of the molar value.

Solved cases (7 shown):
[[record]]
compound = "Cn1c(-c2ccccc2)cc2nc(C(=O)N3CCCC(COc4cccnc4C(F)(F)F)C3)cnc21 (centres unmarked)"
tested_system = "GCase (Homo sapiens)"
measured_endpoint = "pEC50"
result = "4.30 to 5.00"

[[record]]
compound = "CCCCC[C@H]1CC[C@H](C(=O)N2CCCC(COc3ccccc3)C2)CC1 (some centres unmarked)"
tested_system = "GCase (Homo sapiens)"
measured_endpoint = "pEC50"
result = "> 5.00"

[[record]]
compound = "O=C(c1nnc(C2(c3ccccc3)CCCC2)o1)N1CCCC(COc2ccccc2)C1 (centres unmarked)"
tested_system = "GCase (Homo sapiens)"
measured_endpoint = "pEC50"
result = "4.30 to 5.00"

[[record]]
compound = "CC(CSC(F)(F)F)C(=O)N1CCCC(COc2ccccc2)C1 (centres unmarked)"
tested_system = "GCase (Homo sapiens)"
measured_endpoint = "pEC50"
result = "< 4.00"

[[record]]
compound = "Cc1ccccc1OCC1CCCN(C(=O)c2cnc3cc(-c4ccccc4)n(C)c3n2)C1 (centres unmarked)"
tested_system = "GCase (Homo sapiens)"
measured_endpoint = "pEC50"
result = "4.30 to 5.00"

[[record]]
compound = "O=c1[nH]c(N2CCC[C@H](COc3cccnc3C(F)(F)F)C2)cc2c1cnn2CC(F)F"
tested_system = "GCase (Homo sapiens)"
measured_endpoint = "pEC50"
result = "< 4.00"

[[record]]
compound = "COc1ccc(OCC2CCN(Cc3ncc[nH]3)CC2)cc1"
tested_system = "GCase (Homo sapiens)"
measured_endpoint = "pEC50"
result = "4.30 to 5.00"


// below: pEC50 requested for another compound
Could you share which pEC50 value was measured for FC(F)Cn1ncc2ncc(N3CCC(COc4cccnc4C(F)(F)F)CC3)nc21 ? > 5.00

* * *

target: GCase (Homo sapiens, UniProt P04062); construct: endogenous in cells; host or cells: HeLa cells; test: activation of GCase in a live cell PFB assay in HELA cells; format: cell-based
measured.endpoint: EC50

[[record]]
compound = "CC1CC(COc2cccnc2C(F)(F)F)CN(c2cnc3cnn(CC(F)(F)F)c3n2)C1 (stereo not drawn) [Compound 127]"
measured_endpoint = "EC50"
result = "< 10 µM"

[[record]]
compound = "N#Cc1cc(C(F)(F)F)cnc1OC1CCN(C(=O)c2ccc3cc[nH]c3c2)CC1 [Compound 332]"
measured_endpoint = "EC50"
result = "10 to 50 µM"

[[record]]
compound = "C[C@@H]1C[C@H](COc2cccnc2C(F)(F)F)CN(c2cnc3cnn(CC(F)F)c3n2)C1 [Compound 94]"
measured_endpoint = "EC50"
result = "< 10 µM"

[[record]]
compound = "FC(F)Cn1ncc2ncc(N3C[C@H](COc4cccnc4C(F)(F)F)C[C@@H](OC(F)F)C3)nc21 [Compound 299b]"
measured_endpoint = "EC50"
result = "< 10 µM"

[[record]]
compound = "O=C(c1ccc(-c2nnc[nH]2)cc1)N1CCC(OCc2ccccc2)CC1 [Compound 468]"
measured_endpoint = "EC50"
result = "50 to 100 µM"


I am curious: what EC50 value has been reported for O=C(c1ccc2cc[nH]c2c1)N1CCC(OCc2ccccc2)CC1 [Compound 415] ? 50 to 100 µM

Entry COc1ccc(OCC2CCN(c3nc(N)nc(C)c3C)CC2)cc1 [Compound 458] has what EC50? > 100 µM

Which EC50 is reported for this compound? COc1ccc(OCC2CCN(C(=O)c3cc(C(C)C)nc(N)n3)CC2)cc1 [Compound 461] 10 to 50 µM

Consider the compound CC(=O)N1CCC(c2cncc(N3CCCC(COc4ccccc4C(F)(F)F)C3)n2)C(C)C1 (stereo not drawn) [Compound 112] and give its measured EC50. < 10 µM

State the recorded EC50 for this entry: FC(F)Cn1ncc2ncc(N3CCCC(COc4nccnc4Cl)C3)nc21 (stereo not drawn) [Compound 69] > 100 µM

# lookup: EC50 of Cc1ccc(-c2nc(N3CCC(CO)CC3)ncc2-c2ccc(CO)cc2)cc1 [Compound 485] 10 to 50 µM

Recorded EC50 for O=C(c1ccn(Cc2ccccc2)n1)N1CCCC(COc2ccccc2)C1 (stereo not drawn) [Compound 11] , please? 10 to 50 µM
